System: ICK;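 further: KINOMEscan kinase panel screen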
Settings: concentration: 1 μM,replicates: in singlicate; n = 1
Please use condition met for %Inh under 20% and condition not met for everything else, ties included.

C[C@@H](Oc1cc(-c2cnn(C3CCNCC3)c2)cnc1N)c1c(Cl)ccc(F)c1Cl :: condition met

Find out if reported %Inh for CN(C)CCOc1ccc(-c2cc(-c3c[nH]nc3-c3ccccn3)ccn2)cc1 [GW835314] is less than 20%
condition not met

Is %Inh of Cl.Cl.Nc1nc(-c2ccc3c(N)n[nH]c3c2)cc(N2CCCC(NC(=O)c3ccccc3)C2)n1 (centres unmarked) [GSK2286775] strictly below 20%?
condition not met

Quick check: does CCN(CC)CCCCNc1ncc2cc(-c3c(Cl)cccc3Cl)c(NC(=O)NC(C)(C)C)nc2n1 have %Inh under 20%?
condition met

Is %Inh of C=CC(=O)Nc1cc2c(Nc3ccc(F)c(Cl)c3)ncnc2cc1OCCCN1CCOCC1 [GW781483] strictly below 20%?
condition not met

Could you please tell me whether %Inh recorded for CNC(=O)c1ccccc1Sc1ccc2c(/C=C/c3ccccn3)n[nH]c2c1 is less than 20%?
condition met

Please state whether %Inh is below 20% for CCN(CC)CCOc1ccc(Nc2ncc3cc(-c4c(Cl)cccc4Cl)c(=O)n(C)c3n2)cc1 [SB-601273]
condition met
